B1: CDKL4 (parent)
chain: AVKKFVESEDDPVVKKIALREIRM

# Variants of: B1
# Protocol description: protein stability index of a GFP-peptide fusion (GPS, HEK-293T) (PSI 1-6); higher = more stable;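 note: lentivirally expressed fusions sorted by FACS into six bins by GFP to DsRed ratio, PSI derived from sequencing read proportions per bin multiplied by bin number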
# Measurement context: c terminus: a fixed tail appended
Property name: protein stability index
# print the numeric value only

Input line: Dear colleague, I am looking for the recorded protein stability index of the following variant: `K4A`
Output line: 3.07

Input line: Same for `L19F`
Output line: 2.09

Input line: Same for `I22T`
Output line: 4.01

Input line: Same for `E21P`
Output line: 2.57

Input line: Same for `I22R`
Output line: 4.03

Input line: Same for `D11Q`
Output line: 2.81

Input line: Same for `E7M`
Output line: 2.43

Input line: Same for `D11H`
Output line: 2.96

Input line: Same for `K15H`
Output line: 3.14

Input line: Same for `A18I`
Output line: 2.21

Input line: Same for `R20N`
Output line: 3.74

Input line: Same for `D10H`
Output line: 2.82

Input line: Same for `V2A`
Output line: 3.8

Input line: Same for `V13F`
Output line: 2.5

Input line: Same for `A18C`
Output line: 2.25

Input line: Same for `R23L`
Output line: 1.45

Input line: Same for `F5Q`
Output line: 3.01

Input line: Same for `V13L`
Output line: 2.93

Input line: Same for `R20K`
Output line: 3.67

Input line: Same for `E9A`
Output line: 2.4

Input line: Same for `E21L`
Output line: 2.69

Input line: Same for `K16N`
Output line: 3.52
